Assay: Acute oral toxicity in mice (Table 4)
Conditions: mouse, in vivo, po, LD50, oral, mice, 14 days
measured.attribute: LD50 at 336 h (mg/kg)

>>> assay_value("CCCCCCCCCC[N+](CC)(CC)CCOC(=O)C12CC3CC(CC(C3)C1)C2 [Example 5]")
750
>>> assay_value("CCCCCCCCCC[N+](CC)(CC)CCNC(=O)C12CC3CC(CC(C3)C1)C2 [Example 9]")
980
>>> assay_value("CCCCCCCCCC[N+](C)(C)CCNC(=O)C12CC3CC(CC(C3)C1)C2 [Example 7]")
955
>>> assay_value("CCCCCCCCCCCC[N+](C)(C)CCOC(=O)C12CC3CC(CC(C3)C1)C2 [Example 4]")
820
>>> assay_value("CCCCCCCCCCCC[N+](CC)(CC)CCOC(=O)C12CC3CC(CC(C3)C1)C2 [Example 6]")
935
>>> assay_value("CCCCCCCCCCC[N+](CC)(CC)CCNC(=O)C12CC3CC(CC(C3)C1)C2 [Example 11]")
935
>>> assay_value("CCCCCCCCCCC[N+](C)(C)CCOC(=O)C12CC3CC(CC(C3)C1)C2 [Example 3]")
745
>>> assay_value("CCCCCCCCCCCC[N+](CC)(CC)CCNC(=O)C12CC3CC(CC(C3)C1)C2 [Example 12]")
890
>>> assay_value("CCCCCCCCCC[N+](C)(C)CCOC(=O)C12CC3CC(CC(C3)C1)C2 (single isomer, unassigned) [Example 1]")
910
>>> assay_value("CCCCCCCCCCCC[N+](C)(C)CCNC(=O)C12CC3CC(CC(C3)C1)C2 [Example 8]")
760

----------
System: Diplococcus Pneum. ISM
Test: M.I.C. in vitro, gram+ Diplococcus Pneum. (Table 1)
Format: cell-based
Settings: +10% serum; read-out: M.I.C.
Experimental: The method for evaluating the activity in vitro against bacteria, fungi and protozoa consists in introducing calculated quantities of the substance, the activity of which it is desired to test, into culture media already inoculated with a predetermined number of test germs. […] In table 1 there are recorded the M.I.C. values in γ/ml of the products subject of the present invention, against certain gram+ and gram- bacterial strains, some of which are pathogenic towards human beings.
measured.attribute: MIC (µg/mL)

>>> assay_value("CCCCCCCCCCCC[N+](C)(C)CCOC(=O)C12CC3CC(CC(C3)C1)C2 [Example 4]")
5
>>> assay_value("CCCCCCCCCCC[N+](CC)(CC)CCNC(=O)C12CC3CC(CC(C3)C1)C2 [Example 11]")
5
>>> assay_value("CCCCCCCCCCCC[N+](CC)(CC)CCNC(=O)C12CC3CC(CC(C3)C1)C2 [Example 12]")
20
>>> assay_value("CCCCCCCCCCCC[N+](CC)(CC)CCOC(=O)C12CC3CC(CC(C3)C1)C2 [Example 6]")
5
>>> assay_value("CCCCCCCCCC[N+](CC)(CC)CCOC(=O)C12CC3CC(CC(C3)C1)C2 [Example 5]")
10
>>> assay_value("CCCCCCCCCC[N+](CC)(CC)CCNC(=O)C12CC3CC(CC(C3)C1)C2 [Example 9]")
5
>>> assay_value("CCCCCCCCCC[N+](C)(C)CCNC(=O)C12CC3CC(CC(C3)C1)C2 [Example 7]")
10
>>> assay_value("CCCCCCCCCCCC[N+](C)(C)CCNC(=O)C12CC3CC(CC(C3)C1)C2 [Example 8]")
5
>>> assay_value("CCCCCCCCCCC[N+](C)(C)CCOC(=O)C12CC3CC(CC(C3)C1)C2 [Example 3]")
5
>>> assay_value("CCCCCCCCCC[N+](C)(C)CCOC(=O)C12CC3CC(CC(C3)C1)C2 (single isomer, unassigned) [Example 1]")
5
